These entries and their values trace back to patent US20240327401A1.

test system: ERK phosphorylation in DLD-1 cells; test: In-cell Western blot assay for ERK phosphorylation in DLD-1 cells; type: cell-based; conditions: Homo sapiens, p-ERK signal corrected using DMSO and BI-3406, four-parameter fit
quantity-name: log10 of IC50 (log10 of the value in nM)
Reminder: these figures are log10 of reported IC50, in nM before transformation.

Examples with answers:
Cc1nc(N[C@H](C)c2cccc(C(F)F)c2F)c2cn(C3(C(F)F)CC3)c(=O)c(OCC3CC3)c2n1 = 2.75
Cc1nc(N[C@H](C)c2cccc(C(F)F)c2F)c2cn(C3(C(F)F)CC3)c(=O)c(S(C)(=O)=O)c2n1 = 2.40
Cc1nc(N[C@H](C)c2cccc(C(F)F)c2F)c2cn(C3(C(F)F)CC3)c(=O)c(N(C)C)c2n1 = 2.16
COc1c(=O)n(C2(C(F)F)CC2)cc2c(N[C@H](C)c3cccc4c(F)coc34)nc(C)nc12 [SZ-022330B] = 2.60
COc1c(=O)n(C2(C(F)F)CC2)cc2c(N[C@H](C)c3ccc(-c4ccccc4CN(C)C)s3)nc(C)nc12 = 1.62
Cc1nc(N[C@H](C)c2cccc(C(F)F)c2F)c2cn(C3(C(F)F)CC3)c(=O)c(OCC(F)F)c2n1 = 2.40

QUERY: Tell me the measured log10 of IC50 of COc1c(=O)n(C2(C(F)F)CC2)cc2c(N[C@H](C)c3cc(N)cc(C(F)(F)F)c3)nc(C)nc12 , please.
RESULT: 2.18

QUERY: Fill blank: measured log10 of IC50 of the molecule COc1c(=O)n(C2(C(F)(F)F)CC2)cc2c(N[C@H](C)c3cccc(C#N)c3C)nc(C)nc12 is ____.
RESULT: 2.99

QUERY: Which log10 of IC50 value is on record for COc1c(=O)n(C2(C(F)F)CC2)cc2c(N[C@H](C)c3cccc(C(C)(F)F)c3)nc(C)nc12 ?
RESULT: 2.32

QUERY: Item Cc1nc(N[C@H](C)c2cccc(C(F)F)c2F)c2cn(C3(C(F)F)CC3)c(=O)c(O[C@@H]3CCOC3)c2n1 has what recorded log10 of IC50?
RESULT: 2.58

QUERY: Entry under review: COc1c(=O)n(C2(C(F)F)CC2)cc2c(N[C@H](C)c3cccc(C#N)c3C)nc(C)nc12 . Reported log10 of IC50?
RESULT: 2.87

QUERY: Request the reported log10 of IC50 associated with COc1c(=O)n(C2(C(F)F)CC2)cc2c(N[C@H](C)c3cccc(C(F)(F)C(C)(C)O)c3F)nc(C)nc12
RESULT: 2.57
